Test: Cmax in Lewis rat at 10 mg/kg, po
Assay type: ADME, organism-based
Design: dose 10 mg/kg, route oral
Settings: in vivo
Assign Cmax to each entry below.
One number for each entry, in ng/mL.

Exam item: May I ask what Cmax has been recorded for `COc1cc(N2CCN(C)CC2)ccc1NC(=O)c1cccc(-c2cnn(C)c2)n1` ?
Marked response: 652

More entries:
Exam item: // lookup Cmax for `COc1cc(N2CCOCC2)ccc1NC(=O)c1cccc(-c2ccn[nH]2)n1`
Marked response: 266

---

Experiment: Tmax in Lewis rat at 10 mg/kg, po
Type: ADME, organism-based
Parameters: dose 10 mg/kg, route oral
Details: in vivo
reportedEndpoint: Tmax (h)
Numbers only, in h.

Exam item: Please give the measured Tmax for this molecule: `COc1cc(N2CCN(C)CC2)ccc1NC(=O)c1cccc(-c2cnn(C)c2)n1`
Marked response: 7

More entries:
Exam item: Could you tell me which Tmax is on file for `COc1cc(N2CCOCC2)ccc1NC(=O)c1cccc(-c2ccn[nH]2)n1` ?
Marked response: 1

Cited source for all entries: ChEMBL document CHEMBL1143094
